target or test system: Gonadotropin-releasing hormone receptor (Rattus norvegicus) (UniProt P30969)
Sequence (P30969 whole entry): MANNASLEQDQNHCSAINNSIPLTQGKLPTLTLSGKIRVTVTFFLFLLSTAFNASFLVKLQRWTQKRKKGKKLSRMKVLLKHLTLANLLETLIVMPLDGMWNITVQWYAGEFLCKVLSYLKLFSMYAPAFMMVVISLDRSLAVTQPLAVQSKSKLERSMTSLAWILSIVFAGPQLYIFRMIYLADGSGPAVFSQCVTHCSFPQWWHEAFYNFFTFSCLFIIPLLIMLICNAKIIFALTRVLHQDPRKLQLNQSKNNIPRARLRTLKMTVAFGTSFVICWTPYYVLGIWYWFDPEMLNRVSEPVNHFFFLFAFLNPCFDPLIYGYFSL
assay summary: Agonist activity at LH-RH receptor in Sprague-Dawley rat pituitary gland assessed as change in follicle-stimulating hormone release in medium at 100 ug/ml incubated for 4 hrs measured every hour for 4 hrs by RIA relative to vehicle-treated control
Hi, to clarify the labels: Criterion met covers Activity from -200 ng/mL upward, Criterion not met covers anything below -200 ng/mL.

Here are 5 compounds together with their reported answers.
(Q) Test whether the compound CCCC[C@H](NC(=O)[C@H](CC(C)C)NC(=O)[C@@H]1CCC(=O)N1)C(=O)N[C@@H](CO)C(=O)N[C@@H](Cc1ccc(O)cc1)C(=O)N[C@H](C)C(=O)N[C@@H](CC(C)C)C(=O)N[C@@H](CCCNC(=N)N)C(=O)N1CCC[C@H]1C(=O)NCC records Activity of -200 ng/mL or higher.
(A) Criterion not met

(Q) Test whether the compound CCNC(=O)[C@@H]1CCCN1C(=O)[C@H](CCCNC(=N)N)NC(=O)[C@H](CC(C)C)NC(=O)[C@@H](C)NC(=O)[C@H](Cc1ccc(O)cc1)NC(=O)[C@H](CO)NC(=O)[C@H](CC(C)C)NC(=O)[C@H](Cc1ccccc1)NC(=O)[C@@H]1CCC(=O)N1 records Activity of -200 ng/mL or higher.
(A) Criterion met

(Q) Test whether the compound CCNC(=O)[C@@H]1CCCN1C(=O)[C@H](CCCNC(=N)N)NC(=O)[C@H](CC(C)C)NC(=O)[C@@H](C)NC(=O)[C@H](Cc1ccc(O)cc1)NC(=O)[C@H](CO)NC(=O)[C@H](CC(C)C)NC(=O)[C@H](CC(C)C)NC(=O)[C@@H]1CCC(=O)N1 records Activity of -200 ng/mL or higher.
(A) Criterion met

(Q) Test whether the compound CCNC(=O)[C@@H]1CCCN1C(=O)[C@H](CCCNC(=N)N)NC(=O)[C@H](CC(C)C)NC(=O)[C@@H](C)NC(=O)[C@H](Cc1ccc(O)cc1)NC(=O)[C@H](CO)NC(=O)[C@H](CC)NC(=O)[C@H](CC(C)C)NC(=O)[C@@H]1CCC(=O)N1 records Activity of -200 ng/mL or higher.
(A) Criterion met

(Q) Test whether the compound CCNC(=O)[C@@H]1CCCN1C(=O)[C@H](CCCNC(=N)N)NC(=O)[C@H](CC(C)C)NC(=O)[C@@H](C)NC(=O)[C@H](Cc1ccc(O)cc1)NC(=O)[C@H](CO)NC(=O)CNC(=O)[C@H](CC(C)C)NC(=O)[C@@H]1CCC(=O)N1 records Activity of -200 ng/mL or higher.
(A) Criterion not met

Next:
(Q) Test whether the compound CCNC(=O)[C@@H]1CCCN1C(=O)[C@H](CCCNC(=N)N)NC(=O)[C@H](CC(C)C)NC(=O)[C@@H](C)NC(=O)[C@H](Cc1ccc(O)cc1)NC(=O)[C@H](CO)NC(=O)[C@H](CC(C)C)NC(=O)[C@H](Cc1c[nH]c2ccccc12)NC(=O)[C@@H]1CCC(=O)N1 records Activity of -200 ng/mL or higher.
(A) Criterion met

(Q) Test whether the compound CCNC(=O)[C@@H]1CCCN1C(=O)[C@H](CCCNC(=N)N)NC(=O)[C@H](CC(C)C)NC(=O)[C@@H](C)NC(=O)[C@H](Cc1ccc(O)cc1)NC(=O)[C@H](CO)NC(=O)[C@H](CC(C)C)NC(=O)[C@@H](NC(=O)[C@@H]1CCC(=O)N1)[C@@H](C)CC records Activity of -200 ng/mL or higher.
(A) Criterion not met
